Tested On: Melanin-concentrating hormone receptor 1 (Homo sapiens)
Measurement Protocol: Displacement of [125I]MCH from human MCH1 receptor expressed in CHO cell by WC assay
Assay type: cell-based
pIC50: −log10 of the molar value.
# pIC50 >= 8 gives Condition met, anything below gives Condition not met

INSERT INTO results (compound_string, assigned_label) VALUES
  ('Cc1cc(NCCN2CCCCC2)nc2ccc(NC(=O)COc3ccc(OC(F)(F)F)cc3)cc12', 'Condition met'),
  ('Cc1cc(N2C[C@@H](C)N[C@@H](C)C2)nc2ccc(NC(=O)COc3ccc(OC(F)(F)F)cc3)cc12', 'Condition not met'),
  ('Cc1cc(N(C)CCN(C)C)nc2ccc(NC(=O)COc3ccc(OC(F)(F)F)cc3)cc12', 'Condition met'),
  ('CCN(CC)CCNc1cc(C)c2cc(NC(=O)COc3ccc(OC(F)(F)F)cc3)ccc2n1', 'Condition met'),
  ('Cc1cc(NCCN(C)C)nc2ccc(NC(=O)COc3ccc(OC(F)(F)F)cc3)cc12', 'Condition met');

----------
Reported pIC50 is given for each of the following molecules.
Tested On: Melanin-concentrating hormone receptor 1 (Homo sapiens, UniProt Q99705)
Sequence (Q99705 whole entry): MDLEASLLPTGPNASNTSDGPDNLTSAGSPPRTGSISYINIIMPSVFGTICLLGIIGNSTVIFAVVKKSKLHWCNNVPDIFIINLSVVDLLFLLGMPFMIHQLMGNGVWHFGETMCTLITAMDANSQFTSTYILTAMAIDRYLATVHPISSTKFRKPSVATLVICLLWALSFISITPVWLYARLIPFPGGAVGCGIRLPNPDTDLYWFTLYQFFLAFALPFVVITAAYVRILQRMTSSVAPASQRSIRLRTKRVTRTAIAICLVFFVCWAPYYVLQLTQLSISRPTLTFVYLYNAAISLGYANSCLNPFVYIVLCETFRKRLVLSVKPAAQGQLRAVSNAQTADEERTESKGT
Measurement Protocol: […] human MCH1 receptor expressed in CHO cell by IP3 assay
Assay type: cell-based
pIC50: −log10 of the molar value.
Recorded Metric: pIC50

INSERT INTO measurements (molecule, tested_on, readout_value) VALUES
  ('Cc1cc(N(C)CCN(C)C)nc2ccc(NC(=O)COc3ccc(OC(F)(F)F)cc3)cc12', 'Melanin-concentrating hormone receptor 1 (Homo sapiens, UniProt Q99705)', 7.51),
  ('Cc1ccc(/C=C/C(=O)Nc2ccc3nc(N(C)CCN(C)C)cc(C)c3c2)cc1', 'Melanin-concentrating hormone receptor 1 (Homo sapiens, UniProt Q99705)', 6.32),
  ('Cc1cc(N(C)CCN(C)C)nc2ccc(NC(=O)C3CCC(c4ccc(Cl)cc4)CC3)cc12 (centres undefined)', 'Melanin-concentrating hormone receptor 1 (Homo sapiens, UniProt Q99705)', 6.41),
  ('Cc1cc(NCCN2CCCCC2)nc2ccc(NC(=O)COc3ccc(OC(F)(F)F)cc3)cc12', 'Melanin-concentrating hormone receptor 1 (Homo sapiens, UniProt Q99705)', 7.48);

----------
Tested On: Melanin-concentrating hormone receptor 1 (Homo sapiens)
Measurement Protocol: Inhibition of human MCH1 receptor by SPA assay
Recorded Metric: IC50 (nM)

INSERT INTO assay_data (compound, unit_info, inequality_operator, readout_value) VALUES
  ('Cc1cc(N(C)CCN(C)C)nc2ccc(NC(=O)COc3ccc(OC(F)(F)F)cc3)cc12', 'nM', '=', 18),
  ('Cc1cc(NCCN2CCOCC2)nc2ccc(NC(=O)COc3ccc(OC(F)(F)F)cc3)cc12', 'nM', '=', 9.6),
  ('Cc1cc(N2CCN(CCO)CC2)nc2ccc(NC(=O)COc3ccc(OC(F)(F)F)cc3)cc12', 'nM', '=', 5),
  ('Cc1cc(N(C)CCN(C)C)nc2ccc(NC(=O)C3CCC(c4ccc(Cl)cc4)CC3)cc12 (centres undefined)', 'nM', '=', 423),
  ('Cc1cc(N2C[C@@H](C)NC[C@@H]2C)nc2ccc(NC(=O)COc3ccc(OC(F)(F)F)cc3)cc12 (racemic)', 'nM', '=', 20),
  ('Cc1cc(N(C)CCN(C)C)nc2ccc(NC(=O)COc3ccc(Cl)cc3)cc12', 'nM', '=', 83),
  ('Cc1cc(N2CCN[C@H](C)C2)nc2ccc(NC(=O)COc3ccc(OC(F)(F)F)cc3)cc12', 'nM', '=', 18),
  ('Cc1cc(N2CCN[C@@H](C)C2)nc2ccc(NC(=O)COc3ccc(OC(F)(F)F)cc3)cc12', 'nM', '=', 13),
  ('Cc1cc(NC2CCN(Cc3ccccc3)CC2)nc2ccc(NC(=O)COc3ccc(OC(F)(F)F)cc3)cc12', 'nM', '=', 40),
  ('Cc1ccc(/C=C/C(=O)Nc2ccc3nc(N(C)CCN(C)C)cc(C)c3c2)cc1', 'nM', '=', 48),
  ('Cc1cc(N(C)CCN(C)C)nc2ccc(NC(=O)COc3ccccc3)cc12', 'nM', '>', 10000),
  ('Cc1cc(NCC(C)(C)CN(C)C)nc2ccc(NC(=O)COc3ccc(OC(F)(F)F)cc3)cc12', 'nM', '=', 16),
  ('CCN(CC)CCNc1cc(C)c2cc(NC(=O)COc3ccc(OC(F)(F)F)cc3)ccc2n1', 'nM', '=', 15),
  ('Cc1cc(N(C)CCN(C)C)nc2ccc(NC(=O)c3ccc(-c4ccccc4)cc3)cc12', 'nM', '=', 42),
  ('Cc1cc(N2C[C@@H](C)N[C@@H](C)C2)nc2ccc(NC(=O)COc3ccc(OC(F)(F)F)cc3)cc12', 'nM', '=', 87),
  ('Cc1cc(N(C)CCN(C)C)nc2ccc(NC(=O)c3ccc(OC(F)(F)F)cc3)cc12', 'nM', '=', 2760),
  ('Cc1cc(N(C)CCN(C)C)nc2ccc(NC(=O)c3ccc(Oc4ccccc4)cc3)cc12', 'nM', '=', 210),
  ('Cc1cc(N(C)CCN(C)C)nc2ccc(NC(=O)CCc3ccc(OC(F)(F)F)cc3)cc12', 'nM', '=', 40),
  ('Cc1cc(N(C)CCN(C)C)nc2ccc(NC(=O)C3CC3c3ccccc3)cc12 (racemic)', 'nM', '>', 10000),
  ('Cc1cc(N2CCCN(C)CC2)nc2ccc(NC(=O)COc3ccc(OC(F)(F)F)cc3)cc12', 'nM', '=', 20),
  ('Cc1cc(N(C)CCN(C)C)nc2ccc(NC(=O)c3cc4ccccc4s3)cc12', 'nM', '=', 2100),
  ('Cc1cc(N(C)CCN(C)C)nc2ccc(NC(=O)c3ccc(Oc4ccccc4)nc3)cc12', 'nM', '=', 105),
  ('Cc1cc(N(C)CCN(C)C)nc2ccc(NC(=O)CNc3ccc(Cl)cc3Cl)cc12', 'nM', '=', 125),
  ('Cc1cc(NCCN2CCCCC2)nc2ccc(NC(=O)COc3ccc(OC(F)(F)F)cc3)cc12', 'nM', '=', 5.3);

----------
Tested On: Melanin-concentrating hormone receptor 1 (Homo sapiens, UniProt Q99705)
Measurement Protocol: Inhibition of human MCH1 receptor by SPA assay
Reported IC50 is given for each of the following molecules.
Recorded Metric: IC50 (nM)

INSERT INTO results (compound_string, inequality_operator, readout_value) VALUES
  ('Cc1cc(N(C)CCN(C)C)nc2ccc(NC(=O)CCc3nc(-c4ccccc4)c(-c4ccccc4)o3)cc12', '=', 162),
  ('Cc1cc(N(C)CCN(C)C)nc2ccc(NC(=O)/C=C/c3ccccc3Cl)cc12', '=', 2540),
  ('Cc1cc(N(C)CCN(C)C)nc2ccc(NC(=O)CCc3ccccc3)cc12', '>', 10000),
  ('Cc1cc(NCCN(C)C)nc2ccc(NC(=O)COc3ccc(OC(F)(F)F)cc3)cc12', '=', 18),
  ('C/C(=C\c1ccccc1)C(=O)Nc1ccc2nc(N(C)CCN(C)C)cc(C)c2c1', '=', 9460),
  ('Cc1cc(N(C)CCN(C)C)nc2ccc(NC(=O)Cc3ccc(-c4ccccc4)cc3)cc12', '=', 3280),
  ('Cc1cc(N(C)CCN(C)C)nc2ccc(NC(=O)/C=C/c3ccccc3)cc12', '=', 6970),
  ('Cc1cc(N(C)CCN(C)C)nc2ccc(NC(=O)NCc3ccc(Br)cc3)cc12', '=', 271),
  ('Cc1oc(-c2ccccc2)nc1CC(=O)Nc1ccc2nc(N(C)CCN(C)C)cc(C)c2c1', '=', 568);

----------
Tested On: Melanin-concentrating hormone receptor 1 (Homo sapiens, UniProt Q99705)
Measurement Protocol: Displacement of [125I]MCH from human MCH1 receptor expressed in CHO cell by WC assay
Format: cell-based
pIC50: −log10 of the molar value.
Recorded Metric: pIC50

INSERT INTO measurements (compound, readout_value) VALUES
  ('Cc1cc(NCCN2CCOCC2)nc2ccc(NC(=O)COc3ccc(OC(F)(F)F)cc3)cc12', 8.89),
  ('Cc1cc(N2CCN[C@H](C)C2)nc2ccc(NC(=O)COc3ccc(OC(F)(F)F)cc3)cc12', 8.39),
  ('Cc1cc(N2CCN(CCO)CC2)nc2ccc(NC(=O)COc3ccc(OC(F)(F)F)cc3)cc12', 8.77),
  ('Cc1cc(N(C)CCN(C)C)nc2ccc(NC(=O)COc3ccc(Cl)cc3)cc12', 7.48),
  ('Cc1cc(NCCN(C(C)C)C(C)C)nc2ccc(NC(=O)COc3ccc(OC(F)(F)F)cc3)cc12', 8.15),
  ('Cc1cc(N(C)CCN(C)C)nc2ccc(NC(=O)CCc3ccc(OC(F)(F)F)cc3)cc12', 7.85),
  ('Cc1cc(N(C)CCN(C)C)nc2ccc(NC(=O)C3CCC(c4ccc(Cl)cc4)CC3)cc12 (configuration not stated)', 7.64);
